target: Ebola GP ectodomain (Mayinga, Zaire, 1976) with the mucin-like domain deleted (Zaire ebolavirus (Mayinga, 1976), UniProt Q05320 33-650)
readout-kind: Kd (nM)
Number only, in nM; omit the unit.

Below, each entry is followed by its recorded Kd result.
mAb114 UCA VH G88E IgG (antibody, V domains shown) VH: EVQLVESGGGLVQPGGSLRLSCAASGFTFSSYDMHWVRQATGKGLEWVSAIGTAGDTYYPGSVKGRFTISRENAKNSLYLQMNSLRAEDTAVYYCVRSDRGVAGLFDSWGQGTLVTVSS VL: DIQMTQSPSSLSASVGDRVTITCRASQGISNYLAWYQQKPGKVPKLLIYAASTLQSGVPSRFSGSGSGTDFTLTISSLQPEDVATYYCQKYNSAPLTFGGGTKVEIK ... 150
mAb114 UCA VH P60A-G61D / VL V43A IgG (antibody, V domains shown) VH: EVQLVESGGGLVQPGGSLRLSCAASGFTFSSYDMHWVRQATGKGLEWVSAIGTAGDTYYADSVKGRFTISRENAKNSLYLQMNSLRAGDTAVYYCVRSDRGVAGLFDSWGQGTLVTVSS VL: DIQMTQSPSSLSASVGDRVTITCRASQGISNYLAWYQQKPGKAPKLLIYAASTLQSGVPSRFSGSGSGTDFTLTISSLQPEDVATYYCQKYNSAPLTFGGGTKVEIK ... 5

Now consider the entry below.
Incoming: State the recorded Kd for this entry: mAb114 UCA VL V43A IgG (antibody, V domains shown) VH: EVQLVESGGGLVQPGGSLRLSCAASGFTFSSYDMHWVRQATGKGLEWVSAIGTAGDTYYPGSVKGRFTISRENAKNSLYLQMNSLRAGDTAVYYCVRSDRGVAGLFDSWGQGTLVTVSS VL: DIQMTQSPSSLSASVGDRVTITCRASQGISNYLAWYQQKPGKAPKLLIYAASTLQSGVPSRFSGSGSGTDFTLTISSLQPEDVATYYCQKYNSAPLTFGGGTKVEIK
Outgoing: 60
